The reader will find reported Cocklebur plant response rating values listed item by item below.
- Test system: cocklebur
- measurement notes: Test B pre/postemergence cocklebur
- Assay type: in vivo, Xanthium strumarium
- experimental parameters: Rate 500 g/ha, Postemergence; scale 0 to 10, 0 no effect, 10 complete control

smiles input: COc1cccc(C)c1-n1c(=O)on(C(=O)N(c2ccccc2)C(C)C)c1=O
Cocklebur plant response rating: 2
--
smiles input: CN(C(=O)n1oc(=O)n(Cc2cccs2)c1=O)c1ccccc1
Cocklebur plant response rating: 1
--
smiles input: COc1cc(C)cc(C)c1-n1c(=O)on(C(=O)N(c2ccc(F)cc2)C(C)C)c1=O
Cocklebur plant response rating: 0
--
smiles input: Cc1cccc(C(C)(C)C)c1-n1c(=O)on(C(=O)N(c2ccccc2)C(C)C)c1=O
Cocklebur plant response rating: 0
--
smiles input: CCN(Cc1ccccc1)C(=O)n1oc(=O)n(-c2ccccc2C)c1=O
Cocklebur plant response rating: 0
--
smiles input: CC(C)N(C(=O)n1oc(=O)n(Cc2ccccc2)c1=O)c1ccc(Cl)cc1
Cocklebur plant response rating: 4
--
smiles input: CCN(C(=O)n1oc(=O)n(C2CC2)c1=O)C1CCCCC1
Cocklebur plant response rating: 0
--
smiles input: CC(C)N(C(=O)n1oc(=O)n(Cc2ccccn2)c1=O)c1ccc(F)cc1
Cocklebur plant response rating: 3

---

- Test system: wheat
- measurement notes: Test B pre/postemergence wheat
- Assay type: in vivo, Triticum aestivum
- experimental parameters: Preemergence, Rate 250 g/ha; scale of 0 to 10 where 0 is no effect and 10 is complete control
The reader will find reported Wheat plant response rating values listed item by item below.
measured property: Wheat plant response rating

compound: CC(C)N(C(=O)n1oc(=O)n(C2(C)CC2)c1=O)c1ccc(F)cc1F [Compound 363]
endpoint value: 6
--
compound: CCN(C(=O)n1oc(=O)n(C2CC2)c1=O)C1CCCCC1 [Compound 298]
endpoint value: 0
--
compound: CC(C)N(C(=O)n1oc(=O)n(N2C(C)CCCC2C)c1=O)c1ccc(F)cc1F (stereo not drawn) [Compound 383]
endpoint value: 0
--
compound: CC(C)N(C(=O)n1oc(=O)n(N2CCOCC2)c1=O)c1ccc(F)cc1 [Compound 385]
endpoint value: 3
--
compound: Cc1ccccc1-n1c(=O)on(C(=O)N(c2ccc(C(C)C)cc2)C(C)C)c1=O [Compound 231]
endpoint value: 0
--
compound: CCOC(=O)C(C)N(C(=O)n1oc(=O)n(-c2ccccc2C)c1=O)c1ccc(F)cc1 (stereo not drawn) [Compound 247]
endpoint value: 0
--
compound: CC1CC1n1c(=O)on(C(=O)N(c2ccc(F)cc2F)C(C)C)c1=O (stereo not drawn) [Compound 372]
endpoint value: 0
--
compound: CCCCCCCCCCCCCCCCCCCn1c(=O)on(C(=O)N(c2ccc(F)cc2)C(C)C)c1=O [Compound 253]
endpoint value: 0
--
compound: COC(=O)C=CCn1c(=O)on(C(=O)N(c2ccc(F)cc2)C(C)C)c1=O [Compound 263]
endpoint value: 0
--
compound: CC(C)N(C(=O)n1oc(=O)n(C2CC3CCC2C3)c1=O)c1ccccc1 (stereo not drawn) [Compound 328]
endpoint value: 0
--
compound: [2H]C([2H])([2H])n1c(=O)on(C(=O)N(c2ccc(F)cc2)C(C)C)c1=O [Compound 245]
endpoint value: 7
--
compound: CC(C)N(C(=O)n1oc(=O)n(CC2CCCO2)c1=O)c1ccc(F)cc1 (stereo not drawn) [Compound 343]
endpoint value: 0

---

The reader will find reported Blackgrass plant response rating values listed item by item below.
- System: blackgrass
- measurement notes: Test B pre/postemergence blackgrass
- Format: in vivo, Alopecurus myosuroides
- experimental parameters: Postemergence, Rate 125 g/ha; scale of 0 to 10 where 0 is no effect and 10 is complete control
measured property: Blackgrass plant response rating

compound: CC(C)N(C(=O)n1oc(=O)n(C(C)C(=S)N(C)C)c1=O)c1ccc(F)cc1F (stereo not drawn)
endpoint value: 3

compound: CC(C)N(C(=O)n1oc(=O)n(C(C)C)c1=O)c1ccccc1
endpoint value: 8

compound: CC(C)N(C(=O)n1oc(=O)n(CC(=O)C2CCC2)c1=O)c1ccc(F)cc1F
endpoint value: 0

compound: C#CCn1c(=O)on(C(=O)N(c2ccc(F)cc2F)C(C)C)c1=O
endpoint value: 6

compound: CC(C)N(C(=O)n1oc(=O)n(CCCCl)c1=O)c1ccc(F)cc1
endpoint value: 3

compound: Cc1ccccc1-n1c(=O)on(C(=O)N(c2c(F)cccc2F)C(C)C)c1=O
endpoint value: 0

---

- Test system: crabgrass
- measurement notes: Test B pre/postemergence crabgrass
- Format: in vivo, Digitaria sanguinalis
- experimental parameters: Postemergence, Rate 250 g/ha; scale 0 to 10
The reader will find reported Crabgrass plant response rating values listed item by item below.

compound: CC(C)N(C(=O)n1oc(=O)n(CO)c1=O)c1ccc(Cl)cc1 [Compound 457]
Crabgrass plant response rating: 0

compound: CC(C)N(C(=O)n1oc(=O)n(C(C)C#N)c1=O)c1ccccc1 (centres unmarked) [Compound 435]
Crabgrass plant response rating: 7

compound: CC(C)N(C(=O)n1oc(=O)n(CCCNC(=O)CCl)c1=O)c1ccccc1 [Compound 493]
Crabgrass plant response rating: 0

compound: CC(C)N(C(=O)n1oc(=O)n(CCC#N)c1=O)c1ccc(Cl)cc1 [Compound 444]
Crabgrass plant response rating: 9

compound: CCOP(=O)(Cn1c(=O)on(C(=O)N(c2ccccc2)C(C)C)c1=O)OCC [Compound 447]
Crabgrass plant response rating: 0

---

- Tested on: pigweed
- measurement notes: Test B pre/postemergence pigweed
- Type: in vivo, Amaranthus retroflexus
- experimental parameters: Preemergence, Rate 250 g/ha; scale of 0 to 10 where 0 is no effect and 10 is complete control
measured property: Redroot pigweed plant response rating

smiles input: CCC(CC)n1c(=O)on(C(=O)N(c2ccc(F)cc2)C(C)C)c1=O
endpoint value: 10
--
smiles input: CC(C)N(C(=O)n1oc(=O)n(N2CCOCC2)c1=O)c1ccc(F)cc1
endpoint value: 7
--
smiles input: Cc1ccccc1-n1c(=O)on(C(=O)N(c2ccc(Oc3ccccc3)cc2)C(C)C)c1=O
endpoint value: 0
--
smiles input: CCCCCCCCCCCCCCCCCCCn1c(=O)on(C(=O)N(c2ccc(F)cc2)C(C)C)c1=O
endpoint value: 0

---

- System: pigweed
- measurement notes: Test B pre/postemergence pigweed
- Assay type: in vivo, Amaranthus retroflexus
- experimental parameters: Preemergence, Rate 250 g/ha; scale 0 to 10, 0 is no effect, 10 is complete control

smiles input: CC(C)N(C(=O)n1oc(=O)n(COC(=O)C(C)(C)C)c1=O)c1ccc(F)cc1
Redroot pigweed plant response rating: 0
--
smiles input: CC(C)Cn1c(=O)on(C(=O)N(c2ccccc2)C(C)C)c1=O
Redroot pigweed plant response rating: 2
--
smiles input: Cc1nsc(C)c1-n1c(=O)on(C(=O)N(c2ccc(F)cc2F)C(C)C)c1=O
Redroot pigweed plant response rating: 0

---

The reader will find reported Redroot pigweed plant response rating values listed item by item below.
- System: pigweed
- measurement notes: Test B pre/postemergence pigweed
- Format: in vivo, Amaranthus retroflexus
- experimental parameters: Rate 62 g/ha, Postemergence; scale of 0 to 10 where 0 is no effect and 10 is complete control
measured property: Redroot pigweed plant response rating

compound: CC(C)N(C(=O)n1oc(=O)n(CC2CCOC2)c1=O)c1ccc(F)cc1 (stereo not drawn)
tested on: pigweed
measured property: Redroot pigweed plant response rating
endpoint value: 0
//
compound: CC(C)N(C(=O)n1oc(=O)n(C)c1=O)c1ccc(F)cc1F
tested on: pigweed
measured property: Redroot pigweed plant response rating
endpoint value: 2
//
compound: [2H]C([2H])([2H])n1c(=O)on(C(=O)N(c2ccc(F)cc2)C(C)C)c1=O
tested on: pigweed
measured property: Redroot pigweed plant response rating
endpoint value: 3
//
compound: Cc1ccccc1-n1c(=O)on(C(=O)N(c2ccc(C(C)C)cc2)C(C)C)c1=O
tested on: pigweed
measured property: Redroot pigweed plant response rating
endpoint value: 0
//
compound: Cc1ccccc1-n1c(=O)on(C(=O)N(c2ccc(F)cc2Cl)C(C)C)c1=O
tested on: pigweed
measured property: Redroot pigweed plant response rating
endpoint value: 0
//
compound: CC(C)N(C(=O)n1oc(=O)n(CC2CCCO2)c1=O)c1ccc(F)cc1 (stereo not drawn)
tested on: pigweed
measured property: Redroot pigweed plant response rating
endpoint value: 0

---

The reader will find reported Wild oats plant response rating values listed item by item below.
- Test system: wild oat
- measurement notes: Test B pre/postemergence wild oat
- Type: in vivo, Avena fatua
- experimental parameters: Rate 250 g/ha, Postemergence; scale 0 to 10, 0 is no effect, 10 is complete control
- Method: […] At the same time, these crop and weed species were also treated with postemergence applications of test chemicals formulated in the same manner. […] Treated plants and controls were maintained in a greenhouse for twelve to sixteen days, after which all species were compared to controls and visually evaluated. […]

compound: CCOC(CC)n1c(=O)on(C(=O)N(c2ccccc2)C(C)C)c1=O (stereo not shown)
Wild oats plant response rating: 0
--
compound: CC(C)N(C(=O)n1oc(=O)n(C[C@H](C)Cl)c1=O)c1ccc(F)cc1F
Wild oats plant response rating: 4
--
compound: CC(CBr)Cn1c(=O)on(C(=O)N(c2ccc(F)cc2)C(C)C)c1=O (stereo not shown)
Wild oats plant response rating: 0
--
compound: CC(C)N(C(=O)n1oc(=O)n(CCCCl)c1=O)c1ccc(F)cc1
Wild oats plant response rating: 1
